Reported %Inh is given for each of the following molecules.
# System: SIK
# Assay context: concentration: 1 μM, replicates: in singlicate; n = 1;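 note: KINOMEscan kinase panel screen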
# number then unit; no other words

CCn1cnc2c(N)ncnc21 [GW345098] : 19%

I'd like to know its %Inh. The molecule in question is Cc1ccc(C(=O)NCC(N)=O)cc1-n1c(C)cc(OCc2ccc(F)cc2F)c(Br)c1=O
6%

I'd like to know its %Inh. The molecule in question is Nc1nccc(-c2c(-c3ccc(F)cc3)ncn2C2CCN(CC(F)(F)F)CC2)n1 [SB-236560]
0%

* * *

# Test system: NEK5
# Assay context: concentration: 1 μM, replicates: in singlicate; n = 1
Reported %Inh is given for each of the following compounds.
Just the number in %, nothing appended.

Answered cases to consult:
Cc1ccc(C(=O)NCC(N)=O)cc1-n1c(C)cc(OCc2ccc(F)cc2F)c(Br)c1=O : 0
COc1ccc(Nc2ncc(C#N)c(Nc3ccccc3C(N)=O)n2)cc1N1CCN(C)CC1.Cl : 100

Turning now to a further compound:
I'd like to know its %Inh. The compound in question is Fc1ccc(-c2ncn(CCCN3CCOCC3)c2-c2cccnc2)cc1
0

* * *

# System: TEC
# Assay context: concentration: 1 μM, replicates: in singlicate; n = 1
Measured quantity: %Inh (%)
Just the number in %, nothing appended.

CCCCCc1nc2c(N)ncnc2n1CCCCC : 6
NS(=O)(=O)CCc1cccc(Nc2nccc(-c3c(-c4cccc(NC(=O)c5c(F)cccc5F)c4)nn4ccccc34)n2)c1 : 95.6
O=c1cc(N2CCOCC2)nc2n(Cc3cccc(F)c3)ccn12 : 0
Fc1ccc(-c2ncn(CCCN3CCOCC3)c2-c2ccccn2)cc1 : 0
O=C(NOCC1CC1)c1ccc(F)c(F)c1Nc1ccc(I)cc1Cl : 0
O=C(NCCNc1ccnc(Nc2ccc(F)cc2)n1)c1cc2ccccc2s1 : 8
Cc1nnc(-c2ccc3ncc(-c4ccc(S(C)=O)cc4)n3c2)o1 (centres unmarked) : 7
NS(=O)(=O)c1cccc(-c2ccc3ncc(N4CCOCC4)nc3c2)c1 : 18

I'd like to know its %Inh. The compound in question is Cc1ccc(C(=O)NCC(N)=O)cc1-n1c(C)cc(OCc2ccc(F)cc2F)c(Br)c1=O
13

I'd like to know its %Inh. The compound in question is NS(=O)(=O)c1cccc(-c2ccc3nccc(-c4cccc(S(N)(=O)=O)c4)c3c2)c1
0

I'd like to know its %Inh. The compound in question is N#Cc1ccc(-c2cc(-c3c[nH]nc3-c3ccccn3)ccn2)cc1
44

I'd like to know its %Inh. The compound in question is COCCNC(=O)c1ccc(-c2cc(C(=O)NC3CC3)cc(F)c2C)cc1
11

I'd like to know its %Inh. The compound in question is CC(=O)Nc1ccc(COc2ccc(Nc3ccnc4cc(-c5ccccn5)ccc34)cc2)cc1.Cl
0

I'd like to know its %Inh. The compound in question is Nc1nccc(-c2c(-c3ccc(F)cc3)ncn2C2CCN(CC(F)(F)F)CC2)n1
8

I'd like to know its %Inh. The compound in question is Cl.Oc1cccc(Nc2ccnc3cc(-c4ccncc4)ccc23)c1
1

I'd like to know its %Inh. The compound in question is O=c1cc(N2CCOCC2)nc2n(Cc3cccc(Cl)c3Cl)c(C3CC3)nn12
13

I'd like to know its %Inh. The compound in question is Cc1cccc(Cn2ccn3c(=O)cc(N4CCOCC4)nc23)c1
11

I'd like to know its %Inh. The compound in question is CSc1ccc(-c2cc3ncnc(SCC(=O)O)c3s2)cc1
0

I'd like to know its %Inh. The compound in question is N#Cc1c(N2CCOCC2)sc(-c2ccn[nH]2)c1-c1ccc(Cl)cc1
12

I'd like to know its %Inh. The compound in question is O=C(Nc1n[nH]c2cc(-c3cccc(F)c3)ccc12)C1CC1
0

I'd like to know its %Inh. The compound in question is Cc1ccc(NC(=O)c2ccnc(N3CCN(C)CC3)c2)cc1-c1ccc(C(=O)NCC2CC2)cc1
0

I'd like to know its %Inh. The compound in question is NCC(NC(=O)c1cc(-c2cn[nH]c2)c(-c2ccnc3[nH]ccc23)s1)c1ccccc1.O=C(O)C(F)(F)F.O=C(O)C(F)(F)F (centres unmarked)
1

I'd like to know its %Inh. The compound in question is Cc1c2ccc(N(C)c3ccnc(Nc4cccc(S(N)(=O)=O)c4)n3)cc2nn1Cc1ccccc1.Cl.Cl
11

I'd like to know its %Inh. The compound in question is CN(C(=O)c1ccc(-c2cc(-c3c[nH]nc3-c3ccccn3)ccn2)cc1)C1CCOCC1
0

* * *

Reported %Inh is given for each of the following molecules.
# System: SIK2
# Assay context: concentration: 1 μM, replicates: in singlicate; n = 1
Just the number in %, nothing appended.

Answered cases to consult:
COc1ccc(Nc2ncc(C#N)c(Nc3ccccc3C(N)=O)n2)cc1N1CCN(C)CC1.Cl : 96.4
O=C(NCCNc1ccnc(Nc2ccc(F)cc2)n1)c1cc2ccccc2s1 : 0
Cn1cc(-c2ccc3c(c2)CCN3C(=O)Cc2ccccc2Cl)c2c(N)ncnc21 : 52
O=c1cc(N2CCOCC2)nc2n(Cc3cccc4ccccc34)ccn12 : 0
O=c1cc(N2CCOCC2)nc2n(Cc3cccc(Cl)c3Cl)c(C3CC3)nn12 : 0
Cc1cccc(-c2nc(Nc3ccc4ncsc4c3)c3ccccc3n2)n1 : 0

Identify the measured %Inh of Nc1nccc(-c2c(-c3ccc(F)cc3)ncn2C2CCN(CC(F)(F)F)CC2)n1 for SIK2.
0

Identify the measured %Inh of COc1ccc(COc2cc(-n3cnc4ccccc43)sc2C(N)=O)cc1 for SIK2.
0

Identify the measured %Inh of Cc1ccc(NC(=O)c2ccnc(N3CCN(C)CC3)c2)cc1-c1ccc(C(=O)NCC2CC2)cc1 for SIK2.
21

Identify the measured %Inh of COc1cc2c(cc1OCCN1CCN(C)CC1)ncc1c3ccc(C#N)cc3[nH]c21 for SIK2.
88

Identify the measured %Inh of NS(=O)(=O)CCc1cccc(Nc2nccc(-c3c(-c4cccc(NC(=O)c5c(F)cccc5F)c4)nn4ccccc34)n2)c1 for SIK2.
37

* * *

# System: CDC2L2
# Assay context: concentration: 1 μM, replicates: in singlicate; n = 1
Values of %Inh greater than or equal to 10% map to 1 (yes); values below map to 0 (no).

Sample answers from the record:
N#Cc1c(N2CCOCC2)sc(-c2ccn[nH]2)c1-c1ccc(Cl)cc1 : 1 (yes)
COc1ccc(CNC(=O)NC2CCN(c3ccnc(Nc4ccc(OC)cc4)n3)C2)cc1 (stereo not drawn) : 0 (no)
CC(=O)Nc1ccc(COc2ccc(Nc3ccnc4cc(-c5ccccn5)ccc34)cc2)cc1.Cl : 1 (yes)
O=C1Cc2cc(Nc3nc(NCc4cccc(S(=O)(=O)C(F)(F)F)c4)ncc3C(F)(F)F)ccc2N1 : 0 (no)
O=c1cc(N2CCOCC2)nc2n(Cc3cccc(Cl)c3Cl)c(C3CC3)nn12 : 0 (no)

Record Cn1ccc2ncnc(Oc3ccc(NC(=O)Nc4ccncc4)c(Cl)c3)c21 ; criterion: %Inh no lower than 10%. Met?
0 (no)

Record CC(C)(C)n1cnc2c(N)ncnc21 ; criterion: %Inh no lower than 10%. Met?
0 (no)

* * *

# Test system: GAK
# Assay context: concentration: 1 μM, replicates: in singlicate; n = 1
Measured quantity: %Inh (%)
Just the number in %, nothing appended.

Answered cases to consult:
COc1cc2c(cc1OCCN1CCN(C)CC1)ncc1c3ccc(C#N)cc3[nH]c21 : 99.6
[2H]C([2H])(c1cccc(C(F)(F)F)c1C)n1ccn2c(=O)nc(N3CCOCC3)cc12 : 0

Turning now to a further compound:
I'd like to know its %Inh. The compound in question is c1ccc(-c2n[nH]cc2-c2ccnc3ccccc23)nc1
79

* * *

# Tested on: MYO3B
# Assay context: concentration: 1 μM, replicates: in singlicate; n = 1
Measured quantity: %Inh

Answered cases to consult:
Fc1ccc(-c2nn3c(OCC(F)(F)F)cccc3c2-c2ccncc2)cc1 [GW514784] : 0%
CN1c2ccc(NCc3ccc(F)cc3)cc2-c2c(cnn2C)S1(=O)=O : 0%
c1ccc(-c2cc(-c3c[nH]nc3-c3ccccn3)ccn2)cc1 [GW576604] : 0%
CN(C1=C(c2ccccc2)C(=O)NC1=O)c1ccccc1 [SB-334860] : 0%
COc1ccc(COc2cc(-n3cnc4ccccc43)sc2C(N)=O)cc1 [GSK1024304] : 0%
Nc1nc(-c2ccc3c(N)n[nH]c3c2)cc(N2CCCC2)n1 [GSK2227430] : 7%
NS(=O)(=O)c1cccc(-c2ccc3nccc(-c4cccc(S(N)(=O)=O)c4)c3c2)c1 [GW867253] : 0%
O=c1cc(N2CCOCC2)nc2n(Cc3cccc(Cl)c3Cl)c(C3CC3)nn12 [GSK2358994] : 0%

I'd like to know its %Inh. The molecule in question is CC(=O)Nc1ccc(COc2ccc(Nc3ccnc4cc(-c5ccccn5)ccc34)cc2)cc1.Cl [GW440148]
2%

I'd like to know its %Inh. The molecule in question is COC(=O)Nc1nc2cc(Oc3ccc(NC(=O)Nc4cc(F)ccc4F)cc3)ccc2[nH]1.Cl [GW701424]
0%

I'd like to know its %Inh. The molecule in question is CC(C)(C)n1cnc2c(N)ncnc21 [SKF-97359]
5%

I'd like to know its %Inh. The molecule in question is Cc1cccc(-c2nc(Nc3ccc4ncsc4c3)c3ccccc3n2)n1 [GW867588]
16%

I'd like to know its %Inh. The molecule in question is O=C(Nc1n[nH]c2cc(-c3cccc(F)c3)ccc12)C1CC1 [SB-735464]
0%

I'd like to know its %Inh. The molecule in question is NCCNS(=O)(=O)c1ccc(-c2ccnc3[nH]ccc23)cc1 [GSK977617]
0%

I'd like to know its %Inh. The molecule in question is O=c1cc(N2CCOCC2)nc2n(Cc3cccc(F)c3)ccn12 [GSK2297430]
0%

I'd like to know its %Inh. The molecule in question is CCc1nc(-c2cccc(C)c2)c(-c2ccnc(NCc3ccccc3)c2)s1
0%

I'd like to know its %Inh. The molecule in question is COc1cc(Nc2nccc(N3CCC(NC(=O)c4cccc(NC(C)=O)c4)C3)n2)cc(OC)c1OC (centres unmarked) [GSK1379754]
0%

I'd like to know its %Inh. The molecule in question is CN1c2ccc(CNc3ccc(F)cc3)cc2-c2c(cnn2C)S1(=O)=O
0%

I'd like to know its %Inh. The molecule in question is CNc1ncnc2[nH]ncc12 [SKF-18355]
34%

I'd like to know its %Inh. The molecule in question is Cc1cccc(-c2nc(-c3ccc(S(C)(=O)=O)cc3)sc2-c2ccncc2)c1
0%
